Test system: BT-549 breast
Assay: NCI-60 one-dose screen, 48 h
Conditions: 10 µM unless noted
Compounds without any hit were thinned out: in the full panel of roughly 83,000, 20% have a hit. The source made the active and inactive calls. The calls were made as follows: active = growth percent below 10; inactive = the rest.
Labels: active, inactive

- MOLECULE: "CCSc1ncc(Br)c(Sc2nc(N)nc3nc[nH]c23)n1"
  ASSIGNED CLASS: "inactive"
- MOLECULE: "Cc1ccc(N/N=C(/C(=O)c2ccc(Cl)cc2)c2nc(C)cc(=O)[nH]2)cc1"
  ASSIGNED CLASS: "inactive"
- MOLECULE: "O=C1C2C(C(=O)N1CC[Se][Se]CCN1C(=O)C3C(C1=O)[C@H]1C=C[C@@H]3C1)[C@H]1C=C[C@@H]2C1 (some centres undefined)"
  ASSIGNED CLASS: "active"
- MOLECULE: "C[C@H](C(=O)N[C@@H](Cc1ccc(-c2ccccc2)cc1)C(=O)NC1CC(C)(C)NC(C)(C)C1)c1ccc(-c2ccccc2)c(F)c1"
  ASSIGNED CLASS: "active"

###

The entries below are paired with their reported growth.
System: HCT-116 colon
Test: NCI-60 one-dose screen, 48 h (100 = growth as untreated, 0 = no growth, -100 = all killed)
Settings: 10 µM unless noted
The panel holds about 83,000 compounds, 20% with a hit somewhere; the sample as a whole holds those more often.

- COMPOUND: "COC(=O)[C@H]1[C@H]2C[C@@H]3c4[nH]c5cc(OC)ccc5c4CCN3C[C@H]2C[C@@H](OC(=O)/C=C/c2cc(OC)c(OC)c(OC)c2)[C@@H]1OC"
  TEST SYSTEM: "HCT-116 colon"
  growth (%): -28
- COMPOUND: "NS(=O)(=O)c1ccc(-n2ncc3c(N/N=C/c4ccccc4)ncnc32)cc1"
  TEST SYSTEM: "HCT-116 colon"
  growth (%): 83.2
- COMPOUND: "COc1ccccc1-n1c(-c2ccc(O)cc2C)cn2c3c(=O)[nH]c(=O)n(C)c3nc12"
  TEST SYSTEM: "HCT-116 colon"
  growth (%): 97
- COMPOUND: "COc1cnc2c(c1)C(=O)c1c-2n(CCCN2CCC(O)CC2)c(=O)c2cc(F)ccc12"
  TEST SYSTEM: "HCT-116 colon"
  growth (%): -71.7
- COMPOUND: "Cc1sc2nc(NCc3ccccc3)[nH]c(=O)c2c1C"
  TEST SYSTEM: "HCT-116 colon"
  growth (%): 24.5
- COMPOUND: "CCCn1c(N)c(C(=O)CNc2ccc(I)cc2)c(=O)[nH]c1=O"
  TEST SYSTEM: "HCT-116 colon"
  growth (%): 32.3
- COMPOUND: "NC(=NCCCCCCN=C(N)/N=C(\\N)Nc1ccc(Cl)cc1)/N=C(\\N)Nc1ccc(Cl)cc1"
  TEST SYSTEM: "HCT-116 colon"
  growth (%): 13.5
- COMPOUND: "Cc1cc(C)cc(S(=O)(=O)n2ccc(-c3ccc4c(c3)CCC(C)(C)O4)n2)c1"
  TEST SYSTEM: "HCT-116 colon"
  growth (%): 77.8
- COMPOUND: "Cc1ccc(C2=Nc3c(ccc4c(C)c(C)c(=O)oc34)OC2)cc1"
  TEST SYSTEM: "HCT-116 colon"
  growth (%): 95.5
- COMPOUND: "COC(=O)C1=CCC(n2cnc3c(N)ncnc32)O1 (stereo not given)"
  TEST SYSTEM: "HCT-116 colon"
  growth (%): 98.6
- COMPOUND: "Nc1nc(SCc2cccnc2)c2ncn(C3OC(CO)C(O)C3O)c2n1 (stereo not given)"
  TEST SYSTEM: "HCT-116 colon"
  growth (%): 93.8
- COMPOUND: "COc1ccc(NC(=O)[C@@H]2C[C@H]2c2ccccc2)c(C(N)=O)c1"
  TEST SYSTEM: "HCT-116 colon"
  growth (%): 108
- COMPOUND: "NC(=O)c1cc(Cl)ccc1NC(=O)c1ccccc1-c1ccccc1"
  TEST SYSTEM: "HCT-116 colon"
  growth (%): 23.2
- COMPOUND: "CS(=O)(=O)N1CCN(Cc2cc3nc(-c4cccc5[nH]ncc45)nc(N4CCOCC4)c3s2)CC1 (tested in a mixture with another compound)"
  TEST SYSTEM: "HCT-116 colon"
  growth (%): 23.8
- COMPOUND: "Cc1sc2nc(NCCc3cccs3)[nH]c(=O)c2c1C"
  TEST SYSTEM: "HCT-116 colon"
  growth (%): 71
- COMPOUND: "C=C1CC[C@@H]2[C@](C)(COC(C)=O)[C@H](OC(C)=O)CC[C@@]2(C)[C@@H]1CC(NCc1ccccc1)C1=CCOC1=O (stereo not given in full)"
  TEST SYSTEM: "HCT-116 colon"
  growth (%): 42.3
- COMPOUND: "Cc1[nH]c(=O)[nH]c(=O)c1CCSSCCc1c(C)[nH]c(=O)[nH]c1=O"
  TEST SYSTEM: "HCT-116 colon"
  growth (%): 101
- COMPOUND: "CC(C)N(Cc1ccccc1)c1c(Cl)ssc1=O"
  TEST SYSTEM: "HCT-116 colon"
  growth (%): 99.9
- COMPOUND: "COC(=O)c1cc2oc(/C=N\\NC(=O)c3cc4oc(C)c(C)c4[nH]3)cc2[nH]1"
  TEST SYSTEM: "HCT-116 colon"
  growth (%): 101
- COMPOUND: "COc1cc(/C=N/NC(=O)c2ccc(C(F)(F)F)nc2Nc2ccc(Cl)cc2C)ccc1O"
  TEST SYSTEM: "HCT-116 colon"
  growth (%): 11.3
